Each item that follows carries a reported melting point.
property measured: melting point (°C)

[[record]]
compound_smiles = "NC(=O)c1cnc(NC(=O)c2cn(Cc3ccc(Cl)c(Cl)c3)nn2)s1"
u = "°C"
result_number = 280.9

[[record]]
compound_smiles = "Cc1c(C(=O)Nc2ncc(C(=O)O)o2)nnn1Cc1ccc(Cl)c(Cl)c1"
u = "°C"
result_number = 201.8

[[record]]
compound_smiles = "COC(=O)c1cnc(NC(=O)c2nnn(Cc3ccc(Cl)c(Cl)c3)c2C)s1"
u = "°C"
result_number = 212

[[record]]
compound_smiles = "COC(=O)Cc1csc(NC(=O)c2nnn(Cc3ccc(Cl)c(Cl)c3)c2C)n1"
u = "°C"
result_number = 158

[[record]]
compound_smiles = "Cc1nc(NC(=O)c2nnn(Cc3ccc(Cl)c(Cl)c3)c2C)sc1C(=O)N1CCOCC1"
u = "°C"
result_number = 202.9

[[record]]
compound_smiles = "Cc1nc(NC(=O)c2nnn(Cc3ccc(Cl)c(Cl)c3)c2C)sc1C(=O)NC(C)C"
u = "°C"
result_number = 204.4

[[record]]
compound_smiles = "Cc1nc(NC(=O)c2nnn(Cc3ccc(Cl)c(Cl)c3)c2C)sc1C(=O)NCCO"
u = "°C"
result_number = 166


---

property measured: melting point (°C)

[[record]]
molecule = "Cc1c(C(=O)Nc2ncc(C(=O)NCCO)s2)nnn1Cc1ccc(Cl)c(Cl)c1 [Example 31]"
property_measured = "melting point"
u = "°C"
result_number = 260.4

[[record]]
molecule = "CNC(=O)c1sc(NC(=O)c2nnn(Cc3ccc(Cl)c(Cl)c3)c2C)nc1C [Example 18]"
property_measured = "melting point"
u = "°C"
result_number = 218.5

[[record]]
molecule = "Cc1c(C(=O)Nc2nncs2)nnn1Cc1ccc(Cl)c(Cl)c1 [Example 38]"
property_measured = "melting point"
u = "°C"
result_number = 215.6

[[record]]
molecule = "Cc1nnc(NC(=O)c2nnn(Cc3ccc(Cl)c(Cl)c3)c2C)o1 [Example 6]"
property_measured = "melting point"
u = "°C"
result_number = 192.2

[[record]]
molecule = "CNC(=O)c1sc(NC(=O)c2cn(Cc3ccc(Cl)c(Cl)c3)nn2)nc1C [Example 34]"
property_measured = "melting point"
u = "°C"
result_number = 210.4

[[record]]
molecule = "COC(=O)c1ccnc(NC(=O)c2nnn(Cc3ccc(Cl)c(Cl)c3)c2C)c1 [Example 15]"
property_measured = "melting point"
u = "°C"
result_number = 172

[[record]]
molecule = "Cc1c(C(=O)Nc2cc(CO)ccn2)nnn1Cc1ccc(Cl)c(Cl)c1 [Example 44]"
property_measured = "melting point"
u = "°C"
result_number = 191

[[record]]
molecule = "Cc1c(C(=O)Nc2ncc(C(=O)NCCC(C)C)s2)nnn1Cc1ccc(Cl)c(Cl)c1 [Example 23]"
property_measured = "melting point"
u = "°C"
result_number = 259.3

[[record]]
molecule = "CCNC(=O)c1sc(NC(=O)c2nnn(Cc3ccc(Cl)c(Cl)c3)c2C)nc1C [Example 21]"
property_measured = "melting point"
u = "°C"
result_number = 194.1

[[record]]
molecule = "CCOC(=O)c1ccc2nc(NC(=O)c3nnn(Cc4ccc(Cl)c(Cl)c4)c3C)sc2c1 [Example 11]"
property_measured = "melting point"
u = "°C"
result_number = 199

[[record]]
molecule = "O=C(Nc1ncc(C(=O)NCCO)s1)c1cn(Cc2ccc(Cl)c(Cl)c2)nn1 [Example 35]"
property_measured = "melting point"
u = "°C"
result_number = 274.8

[[record]]
molecule = "Cc1c(C(=O)Nc2nnc(CO)s2)nnn1Cc1ccc(Cl)c(Cl)c1 [Example 42]"
property_measured = "melting point"
u = "°C"
result_number = 153.6

[[record]]
molecule = "Cc1nc(NC(=O)c2cn(Cc3ccc(Cl)c(Cl)c3)nn2)sc1C(N)=O [Example 37]"
property_measured = "melting point"
u = "°C"
result_number = 283

[[record]]
molecule = "CCOC(=O)c1nnc(NC(=O)c2nnn(Cc3ccc(Cl)c(Cl)c3)c2C)s1 [Example 3]"
property_measured = "melting point"
u = "°C"
result_number = 203.8

[[record]]
molecule = "Cc1nc(NC(=O)c2nnn(Cc3ccc(Cl)c(Cl)c3)c2C)sc1C(=O)N1CCN(C)CC1 [Example 25]"
property_measured = "melting point"
u = "°C"
result_number = 216.9

[[record]]
molecule = "Cc1c(C(=O)Nc2ncc(C(=O)N(C)C)s2)nnn1Cc1ccc(Cl)c(Cl)c1 [Example 30]"
property_measured = "melting point"
u = "°C"
result_number = 304.9

[[record]]
molecule = "CCOC(=O)c1sc(NC(=O)c2nnn(Cc3ccc(Cl)c(Cl)c3)c2C)nc1C(F)(F)F [Example 9]"
property_measured = "melting point"
u = "°C"
result_number = 155

[[record]]
molecule = "CCNC(=O)c1sc(NC(=O)c2cn(Cc3ccc(Cl)c(Cl)c3)nn2)nc1C [Example 33]"
property_measured = "melting point"
u = "°C"
result_number = 210.6

